Test system: MDA-MB-231 breast
ASSAY_INFO: NCI-60 one-dose screen, 48 h
PARTICULARS: 10 µM unless noted
This is part of a sample that, as a whole, favours compounds with a hit. Of some 83,000 tested, about 20% had one in any assay. Calls of active or inactive are those of the source. How the source made its calls: active means growth percent below 10; inactive means the rest.
Lab note: assign the record to one of True = active, False = inactive

Which outcome was assigned to C=C1C(=O)O[C@H]2[C@H]1CC/C(Cn1cc(CNCCc3c[nH]c4ccc(Cl)cc34)nn1)=C\CC[C@@]1(C)O[C@@H]21 in this test?
False

What did the test return for O=C1Nc2ccccc2/C1=N/N=C/c1c[nH]c2ccccc12 ?
False

Per the records of this test, what outcome belongs to Cc1nc(-c2ccccc2)cc2c(O)c(C(=O)N/N=C/c3ccc(N(C)C)cc3)[nH]c(=O)c12 ?
False

Name the outcome recorded for CCOC(=O)C1=C(C)NC(SCc2nnc(-c3ccc(Cl)cc3)o2)=NC1c1ccc(Cl)cc1Cl (centres undefined) in the assay.
False

Dear colleague, could you share the recorded outcome for COc1cccc(CCC2CCCN(c3cc(C)nc(N)n3)C2)c1 (centres undefined) when you have a moment?
False

Please state the recorded outcome for this molecule: Cc1cc(N(CCCNc2ccnc3cc(Cl)ccc23)Cc2ccccn2)nc(N2CCCC2)n1
False

What was the test verdict on C=C1c2c(C)nn(-c3ccc(S(N)(=O)=O)cc3)c2N(C)C23CC1C1(C)c4c(C)nn(-c5ccc(S(N)(=O)=O)cc5)c4N(C)C(C)(CC12)C3 (centres undefined) ?
False

// outcome(item) with item = COc1cccc(-c2nc3sccn3c2-c2ccnc(NCCNS(=O)(=O)c3c(Cl)cccc3Cl)c2)c1
False

What was the test verdict on COC(=O)[C@]12CC[C@@H](C)[C@H](C)[C@@H]1C1=CC[C@@H]3[C@@]4(C)C(C=O)=C[C@@](C)(CO)C4=CC[C@@]3(C)[C@]1(C)CC2 ?
False

Tell me the assay call for CS(=O)(=O)c1ccc(N/N=C/c2c(-c3ccc(S(C)(=O)=O)cc3)[nH]c3ccc(F)cc23)cc1 please.
False

Hi, sorry to bother you, what did the test record for COc1cc2c(c(OC)c1OC)C(=O)/C(=C/c1cc(C)c(O)c(C)c1)S2 ?
False

What was the test verdict on Cc1nc(Nc2ccc(S(=O)(=O)Nc3cc(C)on3)cc2)c2ccccc2n1 ?
False

Record request — test call for CCCNCC(=O)Nc1ccc(C(=O)OC(C)(C)CC)cc1
False

# outcome recorded in this test, key = Fc1ccc(Nc2nc3nonc3nc2Nc2ccc(F)cc2)cc1
True

Name the outcome recorded for CO/C(=C1/NC(=O)C(Cc2ccc(O)c(Br)c2)N(C)C(=O)C(C)NC(=O)CCC/C=C(\C)CCC(C)OC1=O)c1ccccc1 (centres undefined) in the assay.
True

Per the records of this test, what outcome belongs to N#Cc1cccc(-c2nc3ccccn3c2NCCN2CCOCC2)c1 ?
False

Just curious, what result did C=CC(=O)Nc1cccc(C)c1Nc1cc(-c2cccnc2Cc2c(C)c(OC)cc(OC)c2C)ncn1 get here?
False

# fetch the recorded call for C#CC[C@H](N)C(=O)O here
False

Which outcome was assigned to CCOC(=O)c1ccc(-c2ccc3cc(OC)ccc3c2)nc1C in this test?
False

----------
System: A498 renal
ASSAY_INFO: NCI-60 one-dose screen, 48 h (100 = growth as untreated, 0 = no growth, -100 = all killed)
PARTICULARS: 10 µM unless noted
This is part of a sample that, as a whole, favours compounds with a hit. Of some 83,000 tested, about 20% had one in any assay.
RECORDED_METRIC: growth (%)
All answers are understood in %, so give the number only.

What measured growth goes with O=C1C2=C(CCN(Cc3ccccc3)C2)N2CCN=C2N1Cc1ccc(F)cc1F ?
14.6

Query (compound): COc1ccc(NC(=O)C(=O)c2c[nH]c3ccc(F)cc23)cc1 ; field requested: growth
65.8

Would you mind telling me what growth value was observed for C=C1c2c(C)nn(-c3ccc(N)cc3)c2N(C)C23CC1C1(C)c4c(C)nn(-c5ccc(N)cc5)c4N(C)C(C)(CC12)C3 (centres undefined) ?
89.4

If you can, please state the reported growth value of CCc1c(C(=O)N[C@@H]2c3cc(Cl)ccc3CC[C@@H]2O)[nH]c(C)c1C(C)=O .
67.6

Fill in the blank: the reported growth of O=c1[nH]nc(-c2ccc(Cl)cc2)cc1Cc1ccccc1 is ____.
110

What does the record list as growth for CC(=O)c1sc(-c2ccccc2)cc1N ?
84.4

// lookup growth for O=C(/C=C/c1ccccc1)c1ccc2ccccc2c1
93.5

Endpoint output: growth of O=C(NCc1cn(Cc2cccc(Oc3ccccc3)c2)nn1)c1cccnc1NCc1ccc(Cl)cc1 . Value?
-4.32

Sample COc1cccc(-c2cnco2)c1OCc1c(C)c(COc2c(OC)cccc2-c2cnco2)c(C)c(COc2c(OC)cccc2-c2cnco2)c1C — what was its growth?
-13.6

Need growth of O=c1ccn(C2OC(F)(CO)C(O)C2F)c(=O)[nH]1 (centres undefined) , thanks.
68.5

What does the data say about its growth? Entry: Cc1nc(Nc2ccc(NC(=S)Nc3ccccc3)cc2)nc2nc(SCc3ccccc3)[nH]c(=O)c12
102

Could you tell me which growth is on file for Cc1nc(Nc2ccc(NC(=S)Nc3ccccc3)cc2)nc2nc(Nc3ccc(S(=O)(=O)O)cc3)[nH]c(=O)c12 ?
158

What does the record list as growth for CCOC(=O)c1sc(-c2ccc(OS(=O)(=O)c3ccc(C(C)(C)C)cc3)c(C=O)c2)nc1C ?
57

Entry Cc1c(C(=O)O[C@H]2[C@@H]3[C@H](C)CC[C@H]3[C@]3(C)O[C@@]2(C2CCCCC2)C[C@H]3OC(=O)CO)ccc2ccccc12 has what growth?
-76.6

Endpoint output: growth of Nc1c(-c2nc3ccc(Br)cc3c(=O)[nH]2)nnn1-c1ccccc1 . Value?
87.4

# lookup: growth of CCN(CC)CC(=O)Nc1cccc(C(=O)OC(C)C)c1
140

// query growth value for entry O=C1C(Cl)C(c2ccccc2Cl)N1n1cnnc1 (centres undefined)
93.9

Field request: growth | item: C[C@@H](C[C@H](CCOCc1cccnc1)c1ccccc1)c1cc2ccccc2o1
101

Endpoint output: growth of COC(=O)c1ccc2oc(NC(=O)c3ccc(N4CCOCC4)c([N+](=O)[O-])c3)nc2c1 . Value?
98.5

Param item = CC(C)OCCCNCC(=O)Nc1ccc(S(=O)(=O)c2ccc(NC(=O)CNCCCOC(C)C)cc2)cc1 ; retrieve measured growth.
89.5

Quick one: growth for O=C(Nc1cccc2[nH]c(C(F)(F)F)nc12)c1cc(Cl)ccc1Cl ?
-7.02

Entry Cc1nc(Nc2ccc(S(=O)(=O)Nc3cc(C)on3)cc2)c2ccccc2n1 : reported growth = ?
94.3

Which growth reading was recorded for the compound N#Cc1c(N)nc2c(nnn2-c2cccc(Br)c2)c1N ?
105

What value of growth has been reported for the following compound? CCCCN(CCCC)CCCn1c(=O)c2sc3ncccc3c2n2nnc(-c3ccccc3)c12
117

Field request: growth | item: O=C1c2cccc3c(-c4ccc(-c5nc6c7ccccc7c7ccccc7c6[nH]5)cc4)ccc(c23)C(=O)N1CCN1CCNCC1
107

Report growth for Cc1nn(-c2ccccc2)c2c1C(c1ccc([N+](=O)[O-])cc1)C(C#N)=C(N)O2 (centres undefined) please.
111

What value of measured growth is listed for CCCCCCNCc1cc(C(C)(C)C)cc(CNCCCCCC)c1O ?
-7.12

May I ask what growth has been recorded for Nc1ccc2c(S(=O)(=O)O)ccc(S(=O)(=O)O)c2c1 ?
116

What measured growth goes with CNC(=O)c1c(NC(=O)c2ccc(C(C)(C)C)cc2)sc2c1CCC(=O)C2 ?
12.6

Would you mind telling me what growth value was observed for CN1C[C@@H](c2ccc(Cl)cc2)[C@]2(NC(=S)N(c3ccc(F)c(Cl)c3)C2=O)[C@@]12C(=O)NC1C=CC(Cl)=C[C@H]12 (some centres undefined) ?
66.8

What does the data say about its growth? Entry: O=C1/C(=C/c2ccc([N+](=O)[O-])cc2)COc2ccc(O)c(O)c21
86.3

Reported growth for CCOC(=O)c1c(C)nc2c(c1N)/C(=C/c1ccc(OC)cc1)C(=O)N2Cc1ccc(F)cc1 : what is it?
-44.2

Recorded growth for CCOC(=O)N1CCc2c(sc3c2C(=O)N[C@H](c2ccc(OC)cc2)N3)C1 , please?
96.4

Item O=C1CSC(c2ccccc2Cl)N1c1nnc(Cn2cnnc2)o1 (centres undefined) has what recorded growth?
75.5

Could you share which growth value was measured for C=C(C)C1CCC(=C)C2CCC3(C)OC12/C=C(/COC(C)=O)CCC3O (centres undefined) ?
104

Return reported growth; argument: CCCCS(=O)(=O)Oc1ccc(-c2nc(C)c(C(=O)OCC)s2)cc1C=O
77.5

Query (compound): C/C(=N\NC(N)=S)c1nc2ccc(Cl)cc2[nH]1 ; field requested: growth
53.3

Entry under review: CCn1nc(C#Cc2c(C)ccc3c(Nc4ccc(Cl)cc4)nccc23)c2c(N)ncnc21 . Reported growth?
11.7

Please give the measured growth for this compound: CCOc1ccc(S(=O)(=O)c2ccc(C)cc2)c2c1no[n+]2[O-]
67.2
